Measurement Target: HLA A*3001 (Homo sapiens, UniProt P04439, D140H/D185E/E176W/F33S/G80R/H175R/K168Q/R138E/R41S)
Assay Name: biochemical
pIC50: −log10 of the molar value. Where a SMILES comes first, the peptide text is derived from it.
Measured Property: pIC50

molecule="CC[C@H](C)[C@H](NC(=O)[C@@H](N)CO)C(=O)N[C@@H](CCCNC(=N)N)C(=O)N[C@@H](CCCNC(=N)N)C(=O)N[C@@H](CC(N)=O)C(=O)N[C@@H](CC(C)C)C(=O)N[C@@H](C)C(=O)N[C@@H](CC(C)C)C(=O)N[C@@H](CCCCN)C(=O)O [3102.0157] (H-SIRRNLALK-OH)" numeric_result=7.92
molecule="CC[C@H](C)[C@H](NC(=O)[C@H](CC(N)=O)NC(=O)[C@H](CO)NC(=O)[C@H](CCSC)NC(=O)[C@H](CC(C)C)NC(=O)[C@H](CCCCN)NC(=O)[C@@H](NC(=O)[C@@H](N)CCCNC(=N)N)[C@@H](C)O)C(=O)N[C@@H](CCCCN)C(=O)O [3102.0253] (H-RTKLMSNIK-OH)" numeric_result=9.42
